test system: A498; experiment: NCI tumour cell line growth inhibition, 48 h
Active and inactive are the calls of the source. Rule as the data show it: active = GI50 up to about 1.1 µM and inactive = higher.
For each of the compounds below, state its GI50.

Past entries and their recorded results:
# compound, recorded_endpoint, result
records = [
    ("COc1ccc(/C=C2/C(C)=NN(c3cccc(Cl)c3)/C2=N/c2nc3ccccc3s2)cc1", "GI50", "23.1 µM (inactive)"),
    ("CCc1ccc(CCN2CCCCC2)nc1", "GI50", "> 100 µM (inactive)"),
    ("COC1=CC(=O)c2c(CCNC(=O)OCc3ccccc3)n[nH]c2C1=O", "GI50", "17.5 µM (inactive)"),
    ("COc1cc(OC)c(C2(c3c(OC(C)C)c(=O)c3=O)SCCCS2)cc1OC", "GI50", "> 100 µM (inactive)"),
    ("O=C(NC(Cc1ccc(Br)cc1)C(=O)O)c1ccc(I)cc1 (stereo unspecified)", "GI50", "> 100 µM (inactive)"),
]

Query: Give recorded GI50 with A498 for the following compound: `CCOC(=O)C(c1c[nH]c2ccccc12)(c1c[nH]c2ccccc12)c1c[nH]c2ccccc12`
Result: 35.2 µM (inactive)

Entry source: ChEMBL document CHEMBL1201862
